// Trimeric HA Binding RLU lookup, one value per entry
# TGT: recombinant soluble homotrimeric HA of A/duck/Yangzhou/02/2005 (H8N4) (Influenza A virus A/duck/Yangzhou/02/2005 (H8N4))
# EXPERIMENT SUMMARY: HA microarray, BCC supernatant
# RUN CONDITIONS: remark: other sources report otherwise

BINDER	Trimeric HA Binding RLU
TCN-555 (5246_L16) (antibody, V domains shown) VH: QVQLVQSGAEVKRPGSSVKVSCTASGGIFRKNAISWVRQAPGQGLEWMGGIIAVFNTANYAQKFQNRVKITADESGNTAYMELSSLTSDDTAVYYCASHPKYFYGSGSYPDFWGQGTLVTVSS VL: QSALTQPRSVSGSPGQSITISCTGGSSDIGASNSVSWYQQHPGKAPKLVIFDVTERPSGVPHRFSGSKSGNTASLTVSGLQPDDEADYFCCAYGGKYLVVFGGGTKVTVL	18400 RLU
TCN-528 (5087_P17) (antibody, V domains shown) VH: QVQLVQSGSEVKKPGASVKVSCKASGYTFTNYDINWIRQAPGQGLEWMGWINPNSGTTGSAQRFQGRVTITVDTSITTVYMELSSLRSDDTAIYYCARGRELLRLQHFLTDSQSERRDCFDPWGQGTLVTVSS VL: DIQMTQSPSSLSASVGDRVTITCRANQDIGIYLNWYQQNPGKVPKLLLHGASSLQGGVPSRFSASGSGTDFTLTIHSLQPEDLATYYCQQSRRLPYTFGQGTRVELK	38400 RLU
TCN-551 (5243_D01) (antibody, V domains shown) VH: EVQLVQSGSEVKKPGESLKISCKGSGYSFSNYWIGWVRHMPGKGLEWMGIIYPGDSDTRYSPSFQGQVTMSADKSSSTVYLQWSSLKASDTAIYYCARRGGHSFGYGSGGDTHSEFDSWGQGTLVTVSS VL: QSVLTQSPSVSAAPGQKVTISCSGSDSNIGDYFVCWYQHLPGKPPQLLIYENNKRPSGIPDRFSGSKSGTSATLGITGIQTGDEADYYCATWDGSLSAWVFGGGTKLTVL	9820 RLU

This collection of values is drawn from patent US20150104459A1.
